Origin of the recorded values: patent US20150018546A1

# Test system: HIV-1 (JRCSF)
# EXPERIMENT_DESCRIPTION: Anti-HIV activity in MaRBLE cells infected with HIV-1 (JRCSF), luciferase readout
# Format: cell-based
# RUN_CONDITIONS: Human immunodeficiency virus 1, 168 h; MaRBLE cells (human T lymphocyte-derived HPB-M(a)) infected with HIV-1 (JRCSF); 7 days culture; rate of viral proliferation by luciferase activity; read-out: Anti-HIV activity IC50
pIC50: −log10 of the molar value.
ENDPOINT: pIC50

Cc1ncnc2c1c(NCc1cccc(CN(C)C)c1)cc(=O)n2O | 6.92

A. Cc1ncnc2c1c(NCc1cnc3ccccc3c1)cc(=O)n2O
B. Cc1ncnc2c1c(NC(c1ccccc1)c1ccccc1)cc(=O)n2O
Q. In the pair A and B , the larger recorded pIC50 belongs to which? Give the label under which the chosen entry appears.
A. A
(A: 7.24, B: 6.80)
